Just for reference, PubChem BioAssay AID1984 is where these values come from.

Target: p/CIP-EGFP fusion (nuclear receptor coactivator 3, mouse)
Assay: compounds lowering mouse p/CIP (NCOA3) protein levels – fluorescence, F442A cells, EGFP fusion, primary screen (AID 1984)
Conditions: 16 h, at 10 µM, active compounds read high
The whole screen tested about 290,000 compounds, of which about 35 (0.01%) were called active. Shown is part of a subset that was picked to be rich in actives.
measure: decrease of EGFP signal (%)
Give a bare numeral; the unit % is implied.

Observe how each entry below is paired with its result.
>  <molecule>
NC(=O)c1ccc(Nc2ccc3c(c2)CCC3)c([N+](=O)[O-])c1

>  <measure-unit>
%

>  <decrease of EGFP signal>
-5

$$$$
>  <molecule>
O=C(NCCc1ccccc1)c1ccc2c(c1)N(Cc1ccccc1)CCS2

>  <measure-unit>
%

>  <decrease of EGFP signal>
5.5

$$$$
>  <molecule>
O=C(NCc1ccccc1)C(c1cccnc1)N(C(=O)c1csnn1)c1ccc(F)cc1 (stereo not given)

>  <measure-unit>
%

>  <decrease of EGFP signal>
-5.9

$$$$
>  <molecule>
COC(=O)Cn1cnc2scc(-c3ccc(C)c(C)c3)c2c1=O

>  <measure-unit>
%

>  <decrease of EGFP signal>
4.1

$$$$

# get_value(readout='decrease of EGFP signal', item= "Cc1nn(C)c(Cl)c1CN1CCC(Oc2ccc(C(=O)N3CCCC3)cc2)CC1" )
-12

Which decrease of EGFP signal is listed for "CCCCC(O)(CCCC)C(=O)NN(C(=O)CCl)c1ccccc1" ?
-2.8

Could you tell me which decrease of EGFP signal is on file for "CC(=O)c1cccc(NC(=O)C2CCN(C(=O)c3ccccc3Cl)CC2)c1" ?
4.2

Returns the measured decrease of EGFP signal for the input molecule. Input: OC(CNC1CCCC1)COc1ccc(F)cc1 (stereo not given)
26.4

Would you kindly share the measured decrease of EGFP signal for "CNC(=O)c1sc(NCc2ccccc2OC)nc1C" ?
-5

Quick one: decrease of EGFP signal for "COc1ccc(-c2n[nH]c3c2CN(C(=O)c2ccc(F)cc2)CC3)cc1" ?
-14.3

Entry under review: COc1ccccc1N(CC(=O)NC1CCCC1)C(=O)C1(C)CC(=O)N=C2C=CC(C)=CN21 (stereo not given) . Reported decrease of EGFP signal?
-13.7

Fill in: decrease of EGFP signal of COc1ccc(NC2CCCN(C(=O)c3ccncc3)C2)cc1 (stereo not given) is ___
-13.8

Look up decrease of EGFP signal: Cc1cccc(NC(=O)NC2(C)CCS(=O)(=O)C2)c1 (stereo not given)
-6.6

Entry "CCn1c(SCC(=O)NC2CC2)nnc1-c1ccccn1" has what decrease of EGFP signal?
0.1

Could you share which decrease of EGFP signal value was measured for "O=C(CCc1nnc(Cc2ccc3c(c2)OCO3)o1)NCCc1ccccc1Cl" ?
-7.8

# input molecule: "COc1ccc(CCNC(=O)CCc2cn(C)c3ccccc23)c(OC)c1" ; wanted: its decrease of EGFP signal
-1.8

Suppose we examine the molecule "COc1ccc(OC)c(CCNC(=O)CCn2ccc3cc(S(=O)(=O)N4CCCC4)ccc32)c1" ; what decrease of EGFP signal value has been reported?
1

Given the molecule "CCN1N=C(c2ccccc2)CCC1=O" , what is its reported decrease of EGFP signal?
5.6

What does the record list as decrease of EGFP signal for "CN(C)CCN(C(=O)C1CCCCC1)c1nc2cc3c(cc2s1)OCO3" ?
-21.2

State the recorded decrease of EGFP signal for this entry: "O=C(Nc1cccc(-n2cnnn2)c1)c1cccnc1"
2.8

Using the record for COc1ccc(C(C(=O)NCC2CCCO2)N(C(=O)Cn2nnc3ccccc32)c2ccc(NC(C)=O)cc2)cc1OC (stereo not given) , report its decrease of EGFP signal.
-4.9

For the molecule shown here, "COc1ccc2c(C(=O)c3ccc(C)cc3)n(CCC(N)=O)[n+]([O-])c2c1" , give the reported decrease of EGFP signal.
-5.8

Reported decrease of EGFP signal for "CCc1cccc(NC(=S)N(CCN(C)C)C2CCN(C(C)C)CC2)c1" : what is it?
2.9

Give the measured decrease of EGFP signal of "Nc1c(N(CCO)C(=O)C2CCCCC2)c(=O)[nH]c(=O)n1Cc1ccccc1" .
-13.9

Need decrease of EGFP signal of "NC(=O)c1cc(S(=O)(=O)N2CCCC2)ccc1OCc1ccc(F)cc1" , thanks.
-4.5

Fill in the blank: the reported decrease of EGFP signal of Cc1cc(S(=O)(=O)Nc2ccc(C(=O)NCC(c3ccco3)N3CCCC3)cc2)ccc1F (stereo not given) is ____.
-3

Given "Cc1cc2c(=O)n(CC(=O)NCC(=O)Nc3ccc(C(C)C)cc3)cnc2s1" , state its recorded decrease of EGFP signal.
3.7

Item under review: N#Cc1ccc(C2N=C(c3ccccc3)NO2)cc1 (stereo not given) . Reported decrease of EGFP signal?
-11.6

Bench note: what decrease of EGFP signal did Cc1ccc(CNC(=O)CCC(=O)N2CC(C)Sc3ccccc32)cc1 (stereo not given) show?
-1.6

Given the entry "O=C(OCC(=O)N1CCN(C(=O)c2ccco2)CC1)c1cccc(O)c1" , report its measured decrease of EGFP signal.
2.2
